# Lookup of reported Kd keyed by entry
Target: pOBP (Sus scrofa)
Sequence (P81245 1-157): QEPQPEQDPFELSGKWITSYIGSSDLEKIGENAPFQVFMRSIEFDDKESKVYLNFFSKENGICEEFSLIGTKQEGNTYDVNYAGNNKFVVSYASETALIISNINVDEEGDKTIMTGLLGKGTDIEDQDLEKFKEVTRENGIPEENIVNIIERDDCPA
Assay: Fluorescence titration with 1-AMA and competitive FRET assay on pOBP
Assay type: binding, porcine
Conditions: non-linear fitting; PBS pH 7.4; VOCs by displacement of 1-AMA; read-out: pOBP Kd ± SD
Give the number; µM is assumed, so skip it.

Below, 2 molecules whose answers are already recorded.
CCC(C)=O; 934
C=CC(O)CCCCC (stereo not drawn); 479

Okay, now this molecule:
QUERY: Given the molecule CCCCCO , what is its reported Kd?
RESULT: 1800

###

Measured pKd, listed per entry.
Biological target: pOBP (Sus scrofa)
Assay: Fluorescence titration with 1-AMA and competitive FRET assay on pOBP
Assay type: binding, porcine
Settings: competitive titration with VOC, Figure 4 insets; read-out: k (Hill fit), decrease of 1-AMA emission at 481 nm, pOBP
Method: The ability of pOBP and bOBP to bind 1-AMA was assessed through fluorescence titration experiments. […] However, upon binding 1-AMA to OBPs, two major spectral changes were observed: • A blue-shift in the emission maximum to 481 nm, along with a significant increase in fluorescence intensity. • A decrease in the tryptophan fluorescence emission at 340 nm. A competitive FRET assay was performed to study the interaction between the OBP and the selected VOCs. […]
Note on units: pKd is unitless, being -log10 of a concentration expressed in mol/L.

CCCCCO [1-pentanol]; 2.73

QUERY: May I ask what pKd has been recorded for C=CC(O)CCCCC (centres unmarked) [1-octen-3-ol] ?
RESULT: 3.32

###

target: UniProt:P81245; assay: Fluorescence titration with 1-AMA and competitive FRET assay on pOBP; format: binding, porcine
quantity.name: Kd (nM)
Express the result in nM but write the number alone.

QUERY: Any idea what its Kd is? The molecule is Nc1cccc2cc3ccccc3cc12 [1-AMA, 1-aminoanthracene, reference compound]
RESULT: 2030
